Values were extracted from ChEMBL document CHEMBL2434838.

Organism: Mus musculus
Assay: Selectivity ratio of Ki for mouse brain mu opioid receptor to Ki for mouse brain delta opioid receptor
// reported Ratio Ki per item

Please review the entries below; each comes with its answer.
compound	Ratio Ki
C=CCN1C2CCC3C1CCC2N3C(c1ccc(C(=O)N(CC)CC)cc1)c1cccc(OC)c1 (racemic)	842
C=CCN1C2CCC1C1CCC2N1C(c1ccc(C(=O)NC2CCCCC2)cc1)c1cccc(OC)c1 (racemic)	44
C=CCN1C2CCC1C1CCC2N1C(c1ccc(C(=O)N2CCCCC2)cc1)c1cccc(O)c1 (racemic)	123
C=CCN1C2CCC1C1CCC2N1C(c1ccc(C(=O)N(CC)CC)cc1)c1cccc(O)c1 (racemic)	87
C=CCN1C2CCC3C1CCC2N3C(c1ccc(C(=O)N2CCCCC2)cc1)c1cccc(OC)c1 (racemic)	13

Given the entry C=CCN1C2CCC3C1CCC2N3C(c1ccc(C(=O)N(CC)CC)cc1)c1cccc(O)c1 (racemic) , report its measured Ratio Ki.
231

What does the record list as Ratio Ki for C=CCN1C2CCC1C1CCC2N1C(c1ccc(C(=O)N(CC)CC)cc1)c1cccc(OC)c1 (racemic) ?
8040

Which Ratio Ki reading was recorded for the compound C=CCN1C2CCC1C1CCC2N1C(c1ccc(C(=O)NC2CCCCC2)cc1)c1cccc(O)c1 (racemic) ?
44

// query Ratio Ki value for entry C=CCN1C2CCC1C1CCC2N1C(c1ccc(C(=O)N2CCCC2)cc1)c1cccc(OC)c1 (racemic)
585

For C=CCN1C2CCC1C1CCC2N1C(c1ccc(C(=O)N(C)C)cc1)c1cccc(O)c1 (racemic) , what is its reported Ratio Ki?
193

----------
Organism: Mus musculus
Test: Selectivity ratio of Ki for mouse brain kappa opioid receptor to Ki for mouse brain delta opioid receptor
The reader will find reported Ratio Ki values listed item by item below.
// no unit, no text: just the number

Would you mind telling me what Ratio Ki value was observed for C=CCN1C2CCC3C1CCC2N3C(c1ccc(C(=O)N(CC)CC)cc1)c1cccc(OC)c1 (racemic) ?
2000

Quick one: Ratio Ki for C=CCN1C2CCC1C1CCC2N1C(c1ccc(C(=O)N2CCCC2)cc1)c1cccc(OC)c1 (racemic) ?
1000

What value of Ratio Ki has been recorded for this entry: C=CCN1C2CCC1C1CCC2N1C(c1ccc(C(=O)N(CC)CC)cc1)c1cccc(O)c1 (racemic)
21

Return reported Ratio Ki; argument: C=CCN1C2CCC1C1CCC2N1C(c1ccc(C(=O)NC2CCCCC2)cc1)c1cccc(O)c1 (racemic)
4.3

Fill in the blank: the reported Ratio Ki of C=CCN1C2CCC1C1CCC2N1C(c1ccc(C(=O)N(CC)CC)cc1)c1cccc(OC)c1 (racemic) is ____.
2960

Form field: reported Ratio Ki of C=CCN1C2CCC1C1CCC2N1C(c1ccc(C(=O)N(C)C)cc1)c1cccc(O)c1 (racemic)
759

Suppose we examine the compound C=CCN1C2CCC1C1CCC2N1C(c1ccc(C(=O)N2CCCCC2)cc1)c1cccc(O)c1 (racemic) ; what Ratio Ki value has been reported?
43

Quick one: Ratio Ki for C=CCN1C2CCC3C1CCC2N3C(c1ccc(C(=O)N2CCCCC2)cc1)c1cccc(OC)c1 (racemic) ?
216

----------
Organism: Mus musculus
Experiment: Selectivity ratio of Ki for mouse brain kappa opioid receptor to Ki for mouse brain delta opioid receptor
property_measured: Ratio Ki
Simply state the number, no unit and no words.

Reference set (2 entries):
compound	number
C=CCN1C2CCC1C1CCC2N1C(c1ccc(C(=O)N2CCCC2)cc1)c1cccc(O)c1 (racemic)	23
C=CCN1C2CCC1C1CCC2N1C(c1ccc(C(=O)NC2CCCCC2)cc1)c1cccc(OC)c1 (racemic)	6.7

For the next question, use this compound.
Which Ratio Ki value belongs to C=CCN1C2CCC1C1CCC2N1C(c1ccc(C(=O)N2CCCCC2)cc1)c1cccc(OC)c1 (racemic) ?
685
